Quick reference: GI50 of the listed items.
Test system: SK-MEL-28
method notes: NCI tumour cell line growth inhibition, 48 h
The source made the active and inactive calls. No stated cut-off is given here; in the data, active = GI50 up to about 1.1 µM and inactive = higher.

Solved cases (3 shown):
INSERT INTO assay_data (molecule, value_observed) VALUES
  ('CN(C)CCNC(=O)c1cccc2c(NC(CS)C(=O)O)c3ccccc3nc12 (stereo not given)', '10.7 µM (inactive)'),
  ('O=[N+]([O-])c1ccc(/C=C(/c2ccc([N+](=O)[O-])o2)S(=O)(=O)c2ccccc2)o1', '15.6 µM (inactive)'),
  ('O=Cc1cc([N+](=O)[O-])no1', '> 100 µM (inactive)');

Exercise: Could you tell me which GI50 is on file for COc1cc(/C=C2\Sc3scc(-c4cccc([N+](=O)[O-])c4)[n+]3C2=O)cc(OC)c1OC ?
Solution: 16.1 µM (inactive)

Exercise: Okay, and COC1(OC)C2(Cl)C(Cl)=C(Cl)C1(Cl)C1c3ccc(C(C)=O)c4cccc(c34)C12 (stereo not given) ?
Solution: 42.8 µM (inactive)

Exercise: Okay, and N#Cc1c([N+](=O)[O-])cc(C(F)(F)F)cc1[N+](=O)[O-] ?
Solution: 8.73 µM (inactive)

Exercise: Okay, and Cc1nc(N)c(N2CCN(S(=O)(=O)N(Cc3ccccc3)Cc3ccccc3)CC2)c(O)n1 ?
Solution: 17.6 µM (inactive)

Exercise: Okay, and [N-]=[N+]=NCC(=O)c1cnc(O)nc1O ?
Solution: > 100 µM (inactive)

Exercise: Okay, and O=C1CCc2cc3c(cc21)CC1(Cc2cc4c(cc2C1)CCCC4)C3 ?
Solution: > 100 µM (inactive)

Exercise: Okay, and Cc1ccc(NC(=O)CC(=O)n2nc(C)c(/N=N/c3ccc(S(=O)(=O)CCOS(=O)(=O)O)cc3)c2C)cc1 ?
Solution: > 100 µM (inactive)

* * *

Tested on: HCC 2998
method notes: NCI tumour cell line growth inhibition, 48 h
Active and inactive are the calls of the source. Rule as the data show it: active = GI50 up to about 1.1 µM and inactive = higher.
Select the correct class. Options are class 1 = active, class 0 = inactive and nothing else.

Here are 5 compounds together with their reported answers.
INSERT INTO results (compound, assigned_class) VALUES
  ('[N-]=[N+]=NCC(=O)c1cnc(O)nc1O', 'class 0'),
  ('CCn1c2ccccc2n2c(=O)c3c(c(C#N)c12)CCCC3', 'class 0'),
  ('COc1ccc(S(=O)(=O)N[C@H](C(=O)O)c2ccccc2)cc1', 'class 0'),
  ('CCCCCCCCCCCCCCCCCc1cccc(OCOCCOC)c1C(=O)O', 'class 0'),
  ('O=C(C=P(c1ccccc1)(c1ccccc1)c1ccccc1)c1cccc(-c2cccc([N+](=O)[O-])c2)c1', 'class 0');

Exercise: Please share the test call associated with OCCOc1ccc(-c2cc(-c3ccccn3)nc(-c3ccccn3)c2)cc1 .
Solution: class 1

Exercise: Okay, and NC(=O)N/N=C/C(=C/Nc1ccccc1)[N+](=O)[O-] ?
Solution: class 0

Exercise: Okay, and ClCCN(CC#CCCCC#CCN(CCCl)CCCl)CCCl ?
Solution: class 0

Exercise: Okay, and O=C(CCN(C(=O)O)S(=O)(=O)c1ccc(NC(=O)c2ccccc2)cc1)Nc1ccccc1 ?
Solution: class 0

Exercise: Okay, and COC(C)(C)[C@@H](O)[C@H]1C[C@H](C)[C@@]2(CC[C@]3(C)[C@@H]2CC[C@@H]2[C@@]4(C)CC[C@@H](OC(C)=O)C(C)(C)[C@@H]4C[C@@H](OC4OC(COC(C)=O)C(O)C(O)C4O)[C@]23C)O1 (stereo partly drawn) ?
Solution: class 1

Exercise: Okay, and COc1ccc(N2C(=O)C(N3C(=O)C=CC3=O)C2C=O)cc1 (stereo not drawn) ?
Solution: class 0

Exercise: Okay, and CC1(C)OC(C(=O)Nc2cc3c4ccccc4ccc3c3ccccc23)C(C(=O)N2CCCCC2)O1 (stereo not drawn) ?
Solution: class 0

Exercise: Okay, and C/C(=N\Nc1nnc(S)n1N)c1c(O)cc(C)oc1=O ?
Solution: class 0
